target: KLF5 (Homo sapiens, UniProt Q13887); experiment: pulldown; 150 mM NaCl, 50 mM Tris pH 8, 0.25% NP-40, 1 mM TCEP; 4 C, 2 h; 100 ug HeLa nuclear lysate; details: protein: extract; label: 5' biotin (strand 1)
Sequence (Q13887 whole entry): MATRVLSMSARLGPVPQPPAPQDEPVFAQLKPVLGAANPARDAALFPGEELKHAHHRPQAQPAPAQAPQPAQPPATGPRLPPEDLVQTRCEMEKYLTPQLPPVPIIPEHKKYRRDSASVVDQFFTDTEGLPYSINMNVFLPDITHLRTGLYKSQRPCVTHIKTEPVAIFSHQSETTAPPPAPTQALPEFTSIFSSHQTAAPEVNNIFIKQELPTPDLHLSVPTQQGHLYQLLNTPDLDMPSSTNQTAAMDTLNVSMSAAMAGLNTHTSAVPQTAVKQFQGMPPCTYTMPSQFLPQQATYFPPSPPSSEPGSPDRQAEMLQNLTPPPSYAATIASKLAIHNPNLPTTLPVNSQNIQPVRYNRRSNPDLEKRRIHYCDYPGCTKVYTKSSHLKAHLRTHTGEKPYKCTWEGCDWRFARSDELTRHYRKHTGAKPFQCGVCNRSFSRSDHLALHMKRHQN
parameter measured: apparent K (half saturation) (nM)
Return type: number; implicit unit nM.

Here are 3 binders together with their reported answers.
SP/KLF wild-type (dsDNA) DNA 1: GAGAGCCCCGCCCCCTGGCT DNA 2: AGCCAGGGGGCGGGGCTCTC
37
TEAD (dsDNA) DNA 1: TCGGGACCCAGGCCTGGAATGTTTCCACC DNA 2: GGTGGAAACATTCCAGGCCTGGGTCCCGA
101
CTCF (dsDNA) DNA 1: TCAGAGTGGCGGCCAGCAGGGGGCGCCCTTGCCAGA DNA 2: TCTGGCAAGGGCGCCCCCTGCTGGCCGCCACTCTGA
25.3

For the next question, use this binder.
// query Which apparent K (half saturation) reading was recorded for the binder TATA-box (dsDNA) DNA 1: GCGGCGCTCTATATAAGTGGGCAGTG DNA 2: CACTGCCCACTTATATAGAGCGCCGC ?
// result 219
